Measured CAF (10 minutes/60 minutes) at 10 micromolar: 10 minutes of individual entries
Biological target: KRAS 4B G12C protein (Homo sapiens, UniProt P01116, G12C)
Construct: This protein contained 188 amino acids in total, including an N-terminal 6-Histidine tag; made in house; host or cells: E. coli BL21
Assay: In vitro covalent adduct formation (CAF) assay by LC-MS
Assay type: binding
Details: 10 minutes; compound 10 μM, protein 5 μM, 22° C.; percentage of protein bound by the compound
Return type: number; implicit unit %.

Solved cases below.
1. C=CC(=O)N1CCN(c2nc(OC[C@@H]3CCCN3C)nc3c2CN(Cc2cc(F)ccc2Cl)C3)C[C@@H]1CC#N	78
2. C=CC(=O)N1CCN(c2nc(OC[C@@H]3CCCN3C)nc3c2CN(Cc2nc(N)cc(C)c2C(F)(F)F)C3)C[C@@H]1CC#N	92
3. C=CC(=O)N1CCN(c2nc(OC[C@@H]3CCCN3C)nc3c2CN(C2CCc4cccc(Cl)c42)C3)C[C@@H]1CC#N (some centres unmarked)	98

## Input Any idea what CAF (10 minutes/60 minutes) at 10 micromolar: 10 minutes was measured for `C=CC(=O)N1CCN(c2nc(OC[C@@H]3CCCN3C)nc3c2CN(Cc2ccccc2CC(C)C)C3)C[C@@H]1CC#N` ?
## Output 52

## Input Any idea what CAF (10 minutes/60 minutes) at 10 micromolar: 10 minutes was measured for `C=CC(=O)N1CC2COCC(C1)N2c1nc(OC[C@@H]2CCCN2C)nc2c1CN(Cc1cc(O)ccc1Cl)C2` ?
## Output 2

## Input Any idea what CAF (10 minutes/60 minutes) at 10 micromolar: 10 minutes was measured for `C=CC(=O)N1CCN(c2nc(OC[C@@H]3CCCN3C)nc3c2CN(Cc2ccc(F)cc2C(C)C)C3)C[C@@H]1CC#N` ?
## Output 41

## Input Any idea what CAF (10 minutes/60 minutes) at 10 micromolar: 10 minutes was measured for `C=CC(=O)N1CCN(c2nc(OC[C@@H]3CCCN3C)nc3c2CN(Cc2c(Cl)cccc2OC(F)F)C3)C[C@@H]1CC#N` ?
## Output 94

## Input Any idea what CAF (10 minutes/60 minutes) at 10 micromolar: 10 minutes was measured for C=CC(=O)N1CCN(c2nc(OC[C@@H]3CC(F)(F)CN3C)nc3c2CN(C2CCc4ccccc42)C3)C[C@@H]1CC#N (some centres unmarked) ?
## Output 84

## Input Any idea what CAF (10 minutes/60 minutes) at 10 micromolar: 10 minutes was measured for `C=CC(=O)N1CCN(c2nc(OC[C@@H]3CCCN3C)nc3c2CN(Cc2cc(F)ccc2F)C3)C[C@@H]1CC#N` ?
## Output 68

## Input Any idea what CAF (10 minutes/60 minutes) at 10 micromolar: 10 minutes was measured for C=CC(=O)N1CCN(c2nc(O[C@@H]3CN(C)C[C@H]3OC)nc3c2CN(Cc2cc(O)ccc2Cl)C3)C2COCC21 (some centres unmarked) ?
## Output 0

## Input Any idea what CAF (10 minutes/60 minutes) at 10 micromolar: 10 minutes was measured for C=CC(=O)N1CCN(c2nc(-c3nnc(C)o3)nc3c2CN(C2CCc4ccccc42)C3)C[C@@H]1CC#N (some centres unmarked) ?
## Output 24

----------
Measured CAF (10 minutes/60 minutes) at 10 micromolar: 10 minutes of individual entries
Biological target: KRAS 4B G12C protein (Homo sapiens, UniProt P01116, G12C)
Construct: This protein contained 188 amino acids in total, including an N-terminal 6-Histidine tag; made in house; host or cells: E. coli BL21
Experiment: In vitro covalent adduct formation (CAF) assay by LC-MS
Assay type: binding
Conditions: 10 minutes; compound 10 μM, protein 5 μM, 22° C.; percentage of protein bound by the compound
Return type: number; implicit unit %.

1. C=CC(=O)N1CCN(c2nc(OC[C@@H]3CCCN3C)nc3c2CN(C2CCc4ccc(O)c(Cl)c42)C3)C[C@@H]1CC#N (stereo partly shown) [1-342]	80
2. C=CC(=O)N1CCN(c2nc(OC[C@@H]3CCCN3C)nc3c2CN(Cc2cc(Cl)ccc2C)C3)[C@@H](C)C1 [1-30]	0
3. C=CC(=O)N1CCN(c2nc(OC[C@@H]3CCCN3C)nc3c2CN(Cc2cccc4c2CCO4)C3)C[C@@H]1CC#N [1-143]	48

## Input What reported CAF (10 minutes/60 minutes) at 10 micromolar: 10 minutes corresponds to C=CC(=O)N1CCN(c2nc(OC[C@@H]3CCCN3C)nc3c2CN(Cc2cc(Cl)ccc2C)C3)C[C@@H]1CC#N [1-67] on KRAS 4B G12C protein (Homo sapiens, UniProt P01116, G12C)?
## Output 70

These entries and their values trace back to patent US20210292330A1.
